# Tested on: HeLa Kyoto
# Procedure Text: melting temperature (median over replicates), in situ; higher = more thermally stable
# Condition Info: cell cycle stage: mitosis
Test Readout: melting temperature (°C)
One number for each entry, in °C.

Illustrative cases are given below, each with its answer.
MLGWIKRLIRMVFQQVGVSMQSVLWSRKPYGSSRSIVRKIGTNLSLIQCPRVQFQINSHATEWSPSHPGEDAVASFADVGWVAKEEGECSARLRTEVRSRPPLQDDLLFFEKAPSRQISLPDLSQEEPQLKTPALANEEALQKICALENELAALRAQIAKIVTQQEQQNLTAGDLDSTTFGTIPPHPPPPPPPLPPPALGLHQSTSAVDLIKERREKRANAGKTLVKNNPKKPEMPNMLEILKEMNSVKLRSVKRSEQDVKPKPVDATDPAALIAEALKKKFAYRYRSDSQDEVEKGIPKSESEATSERVLFGPHMLKPTGKMKALIENVSDS [MTFR1] : 52.1
MAAAVPQRAWTVEQLRSEQLPKKDIIKFLQEHGSDSFLAEHKLLGNIKNVAKTANKDHLVTAYNHLFETKRFKGTESISKVSEQVKNVKLNEDKPKETKSEETLDEGPPKYTKSVLKKGDKTNFPKKGDVVHCWYTGTLQDGTVFDTNIQTSAKKKKNAKPLSFKVGVGKVIRGWDEALLTMSKGEKARLEIEPEWAYGKKGQPDAKIPPNAKLTFEVELVDID [FKBP3] : 54.4

Next:
Value (melting temperature, HeLa Kyoto) for record MGAAHSASEEVRELEGKTGFSSDQIEQLHRRFKQLSGDQPTIRKENFNNVPDLELNPIRSKIVRAFFDNRNLRKGPSGLADEINFEDFLTIMSYFRPIDTTMDEEQVELSRKEKLRFLFHMYDSDSDGRITLEEYRNVVEELLSGNPHIEKESARSIADGAMMEAASVCMGQMEPDQVYEGITFEDFLKIWQGIDIETKMHVRFLNMETMALCH [TESC] = 51.7

----------
# System: HeLa Kyoto
# Procedure Text: solubility in G1/S (NP-40 vs SDS abundance) (log2 ratio); higher = more soluble
# Condition Info: cell cycle stage: G1/S
Would you kindly list solubility in G1/S (log2) for each of these sequences?
Answers are plain numbers.

MVLIKEFRVVLPCSVQEYQVGQLYSVAEASKNETGGGEGIEVLKNEPYEKDGEKGQYTHKIYHLKSKVPAFVRMIAPEGSLVFHEKAWNAYPYCRTIVTNEYMKDDFFIKIETWHKPDLGTLENVHGLDPNTWKTVEIVHIDIADRSQVEPADYKADEDPALFQSVKTKRGPLGPNWKKELANSPDCPQMCAYKLVTIKFKWWGLQSKVENFIQKQEKRIFTNFHRQLFCWIDKWIDLTMEDIRRMEDETQKELETMRKRGSVRGTSAADV [PITPNB] : 0.199
MADSSPALSLREGGPRAPRPSAPSPPPRSRSGSESEEAELSLSLARTKTRSYGSTASVRAPLGAGVIERHVEHRVRAGDTLQGIALKYGVTMEQIKRANKLFTNDCIFLKKTLNIPVISEKPLLFNGLNSIDSPENETADNSFSQEEEPVVAGEDLPPPSPQESDVQPVQPEEVSARDFLQRLDLQIKLSTQAAKKLKEESRDEESPYATSLYHS [LYSMD2] : 0.0316
MNIVVEFFVVTFKVLWAFVLAAARWLVRPKEKSVAGQVCLITGAGSGLGRLFALEFARRRALLVLWDINTQSNEETAGMVRHIYRDLEAADAAALQAGNGEEEILPHCNLQVFTYTCDVGKRENVYLTAERVRKEVGEVSVLVNNAGVVSGHHLLECPDELIERTMMVNCHAHFWTTKAFLPTMLEINHGHIVTVASSLGLFSTAGVEDYCASKFGVVGFHESLSHELKAAEKDGIKTTLVCPYLVDTGMFRGCRIRKEIEPFLPPLKPDYCVKQAMKAILTDQPMICTPRLMYIVTFMKSILPFEAVVCMYRFLGADKCMYPFIAQRKQATNNNEAKNGI [RDH10] : -0.308
MAAAAASLRGVVLGPRGAGLPGARARGLLCSARPGQLPLRTPQAVALSSKSGLSRGRKVMLSALGMLAAGGAGLAMALHSAVSASDLELHPPSYPWSHRGLLSSLDHTSIRRGFQVYKQVCASCHSMDFVAYRHLVGVCYTEDEAKELAAEVEVQDGPNEDGEMFMRPGKLFDYFPKPYPNSEAARAANNGALPPDLSYIVRARHGGEDYVFSLLTGYCEPPTGVSLREGLYFNPYFPGQAIAMAPPIYTDVLEFDDGTPATMSQIAKDVCTFLRWASEPEHDHRKRMGLKMLMMMALLVPLVYTIKRHKWSVLKSRKLAYRPPK [CYC1] : 0.869

Next:
Data point: MADIIARLREDGIQKRVIQEGRGELPDFQDGTKATFHYRTLHSDDEGTVLDDSRARGKPMELIIGKKFKLPVWETIVCTMREGEIAQFLCDIKHVVLYPLVAKSLRNIAVGKDPLEGQRHCCGVAQMREHSSLGHADLDALQQNPQPLIFHMEMLKVESPGTYQQDPWAMTDEEKAKAVPLIHQEGNRLYREGHVKEAAAKYYDAIACLKNLQMKEQPGSPEWIQLDQQITPLLLNYCQCKLVVEEYYEVLDHCSSILNKYDDNVKAYFKRGKAHAAVWNAQEAQADFAKVLELDPALAPVVSRELRALEARIRQKDEEDKARFRGIFSH [AIP] ; solubility in G1/S (log2) = 0.556

----------
# Test system: HeLa Kyoto
# Procedure Text: thermal stability score vs G1/S (z-score of summed log2 fold changes over temperatures); higher = more thermally stable than in G1/S
# Condition Info: cell cycle stage: mitosis
Test Readout: thermal stability score
Give bare numbers.

MGLLDLCEEVFGTADLYRVLGVRREASDGEVRRGYHKVSLQVHPDRVGEGDKEDATRRFQILGKVYSVLSDREQRAVYDEQGTVDEDSPVLTQDRDWEAYWRLLFKKISLEDIQAFEKTYKGSEEELADIKQAYLDFKGDMDQIMESVLCVQYTEEPRIRNIIQQAIDAGEVPSYNAFVKESKQKMNARKRRAQEEAKEAEMSRKELGLDEGVDSLKAAIQSRQKDRQKEMDNFLAQMEAKYCKSSKGGGKKSALKKEKK [DNAJC9] : -5.66
MALLVRVLRNQTSISQWVPVCSRLIPVSPTQGQGDRALSRTSQWPQMSQSRACGGSEQIPGIDIQLNRKYHTTRKLSTTKDSPQPVEEKVGAFTKIIEAMGFTGPLKYSKWKIKIAALRMYTSCVEKTDFEEFFLRCQMPDTFNSWFLITLLHVWMCLVRMKQEGRSGKYMCRIIVHFMWEDVQQRGRVMGVNPYILKKNMILMTNHFYAAILGYDEGILSDDHGLAAALWRTFFNRKCEDPRHLELLVEYVRKQIQYLDSMNGEDLLLTGEVSWRPLVEKNPQSILKPHSPTYNDEGL [UQCC1] : -0.909
MTSALENYINRTVAVITSDGRMIVGTLKGFDQTINLILDESHERVFSSSQGVEQVVLGLYIVRGDNVAVIGEIDEETDSALDLGNIRAEPLNSVAH [LSM8] : -3.54

# per-item lookup of thermal stability score; items listed below
1. MWSGPPQPDQGLPPPLAAVPVPWKSTDPCQGHRESPGALVETSAGEEAQGQEGPAAAQLDVLRLRSSSMEIREKGSEFLKEELHRAQKELKLKDEECERLSKVREQLEQELEELTASLFEEAHKMVREANMKQAASEKQLKEARGKIDMLQAEVTALKTLVITSTPASPNRELHPQLLSPTKAGPRKGHSRHKSTSSTLCPAVCPAAGHTLTPDREGKEVDTILFAEFQAWRESPTLDKTCPFLERVYREDVGPCLDFTMQELSVLVRAAVEDNTLTIEPVASQTLPTVKVAEVDCSSTNTCALSGLTRTCRHRIRLGDSKSHYYISPSSRARITAVCNFFTYIRYIQQGLVRQDAEPMFWEIMRLRKEMSLAKLGFFPQEA [RAB3IL1]
2. MGTDSRAAKALLARARTLHLQTGNLLNWGRLRKKCPSTHSEELHDCIQKTLNEWSSQINPDLVREFPDVLECTVSHAVEKINPDEREEMKVSAKLFIVESNSSSSTRSAVDMACSVLGVAQLDSVIIASPPIEDGVNLSLEHLQPYWEELENLVQSKKIVAIGTSDLDKTQLEQLYQWAQVKPNSNQVNLASCCVMPPDLTAFAKQFDIQLLTHNDPKELLSEASFQEALQESIPDIQAHEWVPLWLLRYSVIVKSRGIIKSKGYILQAKRRGS [GCLM]
3. MTSMTQSLREVIKAMTKARNFERVLGKITLVSAAPGKVICEMKVEEEHTNAIGTLHGGLTATLVDNISTMALLCTERGAPGVSVDMNITYMSPAKLGEDIVITAHVLKQGKTLAFTSVDLTNKATGKLIAQGRHTKHLGN [ACOT13]
4. MEEECRVLSIQSHVIRGYVGNRAATFPLQVLGFEIDAVNSVQFSNHTGYAHWKGQVLNSDELQELYEGLRLNNMNKYDYVLTGYTRDKSFLAMVVDIVQELKQQNPRLVYVCDPVLGDKWDGEGSMYVPEDLLPVYKEKVVPLADIITPNQFEAELLSGRKIHSQEEALRVMDMLHSMGPDTVVITSSDLPSPQGSNYLIVLGSQRRRNPAGSVVMERIRMDIRKVDAVFVGTGDLFAAMLLAWTHKHPNNLKVACEKTVSTLHHVLQRTIQCAKAQAGEGVRPSPMQLELRMVQSKRDIEDPEIVVQATVL [PDXK]

1. 0.539
2. 1.08
3. -1.82
4. 0.0482

# per-item lookup of thermal stability score; items listed below
1. MPLVVFCGLPYSGKSRRAEELRVALAAEGRAVYVVDDAAVLGAEDPAVYGDSAREKALRGALRASVERRLSRHDVVILDSLNYIKGFRYELYCLARAARTPLCLVYCVRPGGPIAGPQVAGANENPGRNVSVSWRPRAEEDGRAQAAGSSVLRELHTADSVVNGSAQADVPKELEREESGAAESPALVTPDSEKSAKHGSGAFYSPELLEALTLRFEAPDSRNRWDRPLFTLVGLEEPLPLAGIRSALFENRAPPPHQSTQSQPLASGSFLHQLDQVTSQVLAGLMEAQKSAVPGDLLTLPGTTEHLRFTRPLTMAELSRLRRQFISYTKMHPNNENLPQLANMFLQYLSQSLH [KTI12]
2. MSRPRKRLAGTSGSDKGLSGKRTKTENSGEALAKVEDSNPQKTSATKNCLKNLSSHWLMKSEPESRLEKGVDVKFSIEDLKAQPKQTTCWDGVRNYQARNFLRAMKLGEEAFFYHSNCKEPGIAGLMKIVKEAYPDHTQFEKNNPHYDPSSKEDNPKWSMVDVQFVRMMKRFIPLAELKSYHQAHKATGGPLKNMVLFTRQRLSIQPLTQEEFDFVLSLEEKEPS [THYN1]
3. MPKCPKCNKEVYFAERVTSLGKDWHRPCLKCEKCGKTLTSGGHAEHEGKPYCNHPCYAAMFGPKGFGRGGAESHTFK [CRIP1]
4. MSLFGTTSGFGTSGTSMFGSATTDNHNPMKDIEVTSSPDDSIGCLSFSPPTLPGNFLIAGSWANDVRCWEVQDSGQTIPKAQQMHTGPVLDVCWSDDGSKVFTASCDKTAKMWDLSSNQAIQIAQHDAPVKTIHWIKAPNYSCVMTGSWDKTLKFWDTRSSNPMMVLQLPERCYCADVIYPMAVVATAERGLIVYQLENQPSEFRRIESPLKHQHRCVAIFKDKQNKPTGFALGSIEGRVAIHYINPPNPAKDNFTFKCHRSNGTNTSAPQDIYAVNGIAFHPVHGTLATVGSDGRFSFWDKDARTKLKTSEQLDQPISACCFNHNGNIFAYASSYDWSKGHEFYNPQKKNYIFLRNAAEELKPRNKK [RAE1]

1. -1.26
2. -1.36
3. -5.63
4. -0.473

Each recorded value in this set is attributed to the supplement of paper PMC5998384.
